Sourced from ChEMBL document CHEMBL3797149

target-entity: Voltage-gated inwardly rectifying potassium channel KCNH2 (Homo sapiens, UniProt Q12809)
Sequence (Q12809 whole entry): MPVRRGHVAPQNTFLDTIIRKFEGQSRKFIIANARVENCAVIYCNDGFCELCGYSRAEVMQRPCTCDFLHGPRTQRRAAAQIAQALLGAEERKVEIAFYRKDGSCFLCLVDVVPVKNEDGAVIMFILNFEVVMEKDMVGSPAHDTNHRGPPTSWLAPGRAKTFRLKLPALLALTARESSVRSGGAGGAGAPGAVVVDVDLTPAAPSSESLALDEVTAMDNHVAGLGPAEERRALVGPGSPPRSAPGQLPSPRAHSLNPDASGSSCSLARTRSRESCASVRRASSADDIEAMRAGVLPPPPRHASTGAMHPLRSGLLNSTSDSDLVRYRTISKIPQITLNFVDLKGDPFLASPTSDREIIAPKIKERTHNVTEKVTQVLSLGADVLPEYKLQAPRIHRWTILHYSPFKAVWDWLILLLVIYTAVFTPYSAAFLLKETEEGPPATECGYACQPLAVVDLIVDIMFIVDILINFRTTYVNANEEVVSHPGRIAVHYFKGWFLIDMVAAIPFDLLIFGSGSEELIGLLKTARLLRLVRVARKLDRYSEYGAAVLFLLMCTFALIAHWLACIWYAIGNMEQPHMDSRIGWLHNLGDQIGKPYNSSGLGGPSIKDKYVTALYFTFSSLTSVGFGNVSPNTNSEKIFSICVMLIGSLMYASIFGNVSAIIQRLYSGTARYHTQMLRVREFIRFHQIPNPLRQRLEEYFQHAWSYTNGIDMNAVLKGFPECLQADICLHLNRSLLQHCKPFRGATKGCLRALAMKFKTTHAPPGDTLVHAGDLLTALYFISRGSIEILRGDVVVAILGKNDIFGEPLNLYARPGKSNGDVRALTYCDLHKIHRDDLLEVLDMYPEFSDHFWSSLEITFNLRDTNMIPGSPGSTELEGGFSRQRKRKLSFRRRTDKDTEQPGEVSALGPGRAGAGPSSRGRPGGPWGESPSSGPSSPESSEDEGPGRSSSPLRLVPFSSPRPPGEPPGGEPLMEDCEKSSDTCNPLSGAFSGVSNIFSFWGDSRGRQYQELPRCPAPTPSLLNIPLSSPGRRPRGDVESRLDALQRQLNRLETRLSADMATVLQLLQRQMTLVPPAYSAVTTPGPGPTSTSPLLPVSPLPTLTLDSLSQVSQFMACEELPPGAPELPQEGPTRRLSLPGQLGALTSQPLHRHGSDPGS
experiment: Inhibition of human ERG1 expressed in CHO cells by whole cell patch clamp electrophysiology method
reported-metric: pIC50
Keep in mind that pIC50 stands for -log10 of concentration in molar terms.

Q. Report pIC50 for CC(C)CS(=O)(=O)n1ccc2c(-c3ccc(C(F)(F)F)cc3)cc(N3CCN(C)CC3)nc21
A. 5.68

###

experiment: Tmax in CD1 mouse brain at 3 mg/kg, sc by LC-MS/MS analysis
Format: ADME, organism-based
reported-metric: Tmax (h)
Please state the figure in h; there is no need to write the unit.

Q. Identify measured Tmax associated with CC(C)CS(=O)(=O)n1ccc2c(-c3ccc(C(F)(F)F)cc3)cc(N3CCN(C)CC3)nc21
A. 6

###

experiment: Cmax in CD1 mouse liver at 3 mg/kg, po as single dose after 6 hrs by LC-MS/MS analysis
Type: ADME, organism-based
Design: dose 3 mg/kg, route oral
reported-metric: Cmax (ng/mL)
Give your result in ng/mL as a bare value.

Q. Provide Cmax value for the following compound: CC(C)CS(=O)(=O)n1ccc2c(-c3ccc(C(F)(F)F)cc3)cc(N3CCN(C)CC3)nc21
A. 110

###

experiment: AUClast in CD1 mouse plasma at 10 mg/kg, po as single dose after 0.083 to 6 hrs by LC-MS/MS analysis
Format: ADME, organism-based
Parameters: time upper 6 hr, time lower 0.083 hr, dose 10 mg/kg, route oral
reported-metric: AUC(0-t) (ng·h/mL)
Numbers only here, please. The scale is ng·h/mL.

Q. Supply AUC(0-t) value. Item: CC(C)CS(=O)(=O)n1ccc2c(-c3ccc(C(F)(F)F)cc3)cc(N3CCN(C)CC3)nc21
A. 97

###

experiment: Passive permeability of compound after 4 hrs by sink-PAMPA assay
Format: ADME
run-conditions: read-out: permeability
Below is a list of entries, each paired with its recorded Papp at 4 h value.
Enter your answer as a number in ×10⁻⁶ cm/s; do not include the unit.

Q. Consider the molecule CC(C)CS(=O)(=O)n1ccc2c(-c3ccc(C(F)(F)F)cc3)cc(N3CCNCC3)nc21 and give its recorded Papp at 4 h.
A. 92

--- query ---
Q. Name the recorded Papp at 4 h of the item CC(C)CS(=O)(=O)n1ccc2c(-c3ccc(C(F)(F)F)cc3)cc(N3CCN(C)CC3)nc21 in your answer.
A. 53.7

###

experiment: Tmax in CD1 mouse plasma at 3 mg/kg, sc by LC-MS/MS analysis
Type: ADME, organism-based
reported-metric: Tmax (h)
Your answer is read as h, so omit the unit and give the number.

Q. Please give the documented Tmax of CC(C)CS(=O)(=O)n1ccc2c(-c3ccc(C(F)(F)F)cc3)cc(N3CCN(C)CC3)nc21
A. 1

###

experiment: AUClast in CD1 mouse liver at 10 mg/kg, sc after 6 hrs by LC-MS/MS analysis
Assay type: ADME, organism-based
Parameters: dose 10 mg/kg, time < 6 hr, route subcutaneous
reported-metric: AUC(0-t) at 6 h (ng·h/mL)
# number only, unit ng·h/mL dropped from output

Q. Could you please provide reported AUC(0-t) at 6 h for CC(C)CS(=O)(=O)n1ccc2c(-c3ccc(C(F)(F)F)cc3)cc(N3CCN(C)CC3)nc21 ? Thanks!
A. 687

###

experiment: AUClast in CD1 mouse liver at 3 mg/kg, po as single dose after 6 hrs by LC-MS/MS analysis
Assay type: ADME, organism-based
Design: dose 3 mg/kg, time < 6 hr, route oral
reported-metric: AUC(0-t) at 6 h (ng·h/mL)
Quick note: give the figure in ng·h/mL, leave out the unit.

Q. Note AUC(0-t) at 6 h for the compound shown: CC(C)CS(=O)(=O)n1ccc2c(-c3ccc(C(F)(F)F)cc3)cc(N3CCN(C)CC3)nc21
A. 260

###

experiment: AUClast in CD1 mouse brain at 10 mg/kg, po as single dose after 6 hrs by LC-MS/MS analysis
Assay type: ADME, organism-based
Set-up: time < 6 hr, dose 10 mg/kg, route oral
reported-metric: AUC(0-t) at 6 h
Reply with the number and its unit after it.

Q. Please supply the value of reported AUC(0-t) at 6 h for the item CC(C)CS(=O)(=O)n1ccc2c(-c3ccc(C(F)(F)F)cc3)cc(N3CCN(C)CC3)nc21
A. 134 ng·h/mL

###

experiment: Ratio of drug level in liver to plasma in CD1 mouse at 10 mg/kg, sc by LC-MS/MS analysis
Format: ADME, organism-based
reported-metric: Kp
I only need the number, thanks.

Q. For CC(C)CS(=O)(=O)n1ccc2c(-c3ccc(C(F)(F)F)cc3)cc(N3CCN(C)CC3)nc21 , write its Kp.
A. 3.3

###

experiment: Ratio of drug level in liver to plasma in CD1 mouse at 10 mg/kg, po as single dose by LC-MS/MS analysis
Assay type: ADME, organism-based
reported-metric: Kp
Write the value as a bare number.

Q. Give me measured Kp, please, for this compound: CC(C)CS(=O)(=O)n1ccc2c(-c3ccc(C(F)(F)F)cc3)cc(N3CCN(C)CC3)nc21
A. 30.7

###

experiment: AUClast in CD1 mouse plasma at 10 mg/kg, sc after 0.083 to 6 hrs by LC-MS/MS analysis
Type: ADME, organism-based
Design: time 0.083-6 hr, dose 10 mg/kg, route subcutaneous
reported-metric: AUC(0-t) (ng·h/mL)
Express the result in ng·h/mL but write the number alone.

Q. Indicate its recorded AUC(0-t); the compound in question is CC(C)CS(=O)(=O)n1ccc2c(-c3ccc(C(F)(F)F)cc3)cc(N3CCN(C)CC3)nc21
A. 208

###

experiment: Ratio of drug level in brain to plasma in CD1 mouse at 10 mg/kg, po as single dose by LC-MS/MS analysis
Format: ADME, organism-based
run-conditions: read-out: BPR
reported-metric: Kp
Answer with a number only.

Q. Name the recorded Kp of the compound listed here: CC(C)CS(=O)(=O)n1ccc2c(-c3ccc(C(F)(F)F)cc3)cc(N3CCN(C)CC3)nc21
A. 1.4

###

experiment: Intrinsic clearance in mouse liver microsomes at 1 uM by UPLC-MS analysis in presence of NADPH and UDPGA
Type: ADME
run-conditions: read-out: CLH
reported-metric: microsomal CLint at 1 µM (µL/min/mg)
Response body: numeric value in µL/min/mg, unit text excluded.

Q. Consider the compound CC(C)CS(=O)(=O)n1ccc2c(-c3ccc(C(F)(F)F)cc3)cc(N3CCN(C)CC3)nc21 . State its measured microsomal CLint at 1 µM.
A. 63

###

experiment: Tmax in CD1 mouse plasma at 10 mg/kg, po as single dose by LC-MS/MS analysis
Type: ADME, organism-based
reported-metric: Tmax (h)
// return numeric value only (unit: h, not printed)

Q. For the compound CC(C)CS(=O)(=O)n1ccc2c(-c3ccc(C(F)(F)F)cc3)cc(N3CCN(C)CC3)nc21 , give its reported Tmax.
A. 6

###

experiment: Cmax in CD1 mouse liver at 10 mg/kg, po as single dose after 6 hrs by LC-MS/MS analysis
Type: ADME, organism-based
Parameters: dose 10 mg/kg, route oral
reported-metric: Cmax (ng/mL)
Kindly provide the numeric value in ng/mL only, without the unit symbol.

Q. State, in one line, measured Cmax of CC(C)CS(=O)(=O)n1ccc2c(-c3ccc(C(F)(F)F)cc3)cc(N3CCN(C)CC3)nc21
A. 740

###

experiment: Cmax in CD1 mouse brain at 10 mg/kg, po as single dose after 6 hrs by LC-MS/MS analysis
Assay type: ADME, organism-based
Set-up: dose 10 mg/kg, route oral
reported-metric: Cmax (ng/mL)
Enter your answer as a number in ng/mL; do not include the unit.

Q. Provide one value: measured Cmax of CC(C)CS(=O)(=O)n1ccc2c(-c3ccc(C(F)(F)F)cc3)cc(N3CCN(C)CC3)nc21
A. 26

###

experiment: Cmax in CD1 mouse plasma at 3 mg/kg, po as single dose after 0.083 to 6 hrs by LC-MS/MS analysis
Format: ADME, organism-based
Parameters: dose 3 mg/kg, route oral
reported-metric: Cmax (ng/mL)
Numbers only here, please. The scale is ng/mL.

Q. Indicate the recorded Cmax value for this compound: CC(C)CS(=O)(=O)n1ccc2c(-c3ccc(C(F)(F)F)cc3)cc(N3CCN(C)CC3)nc21
A. 3

###

experiment: AUClast in CD1 mouse liver at 10 mg/kg, po as single dose after 6 hrs by LC-MS/MS analysis
Type: ADME, organism-based
Set-up: dose 10 mg/kg, time < 6 hr, route oral
reported-metric: AUC(0-t) at 6 h (µg·h/mL)
Numeric answer only, unit µg·h/mL assumed.

Q. Supply measured AUC(0-t) at 6 h of CC(C)CS(=O)(=O)n1ccc2c(-c3ccc(C(F)(F)F)cc3)cc(N3CCN(C)CC3)nc21 in your reply.
A. 2.97

###

experiment: Ratio of drug level in liver to plasma in CD1 mouse at 3 mg/kg, sc by LC-MS/MS analysis
Format: ADME, organism-based
reported-metric: Kp
Give only the figure.

Q. Fill in reported Kp for this entry: CC(C)CS(=O)(=O)n1ccc2c(-c3ccc(C(F)(F)F)cc3)cc(N3CCN(C)CC3)nc21
A. 2.7
